Target chain: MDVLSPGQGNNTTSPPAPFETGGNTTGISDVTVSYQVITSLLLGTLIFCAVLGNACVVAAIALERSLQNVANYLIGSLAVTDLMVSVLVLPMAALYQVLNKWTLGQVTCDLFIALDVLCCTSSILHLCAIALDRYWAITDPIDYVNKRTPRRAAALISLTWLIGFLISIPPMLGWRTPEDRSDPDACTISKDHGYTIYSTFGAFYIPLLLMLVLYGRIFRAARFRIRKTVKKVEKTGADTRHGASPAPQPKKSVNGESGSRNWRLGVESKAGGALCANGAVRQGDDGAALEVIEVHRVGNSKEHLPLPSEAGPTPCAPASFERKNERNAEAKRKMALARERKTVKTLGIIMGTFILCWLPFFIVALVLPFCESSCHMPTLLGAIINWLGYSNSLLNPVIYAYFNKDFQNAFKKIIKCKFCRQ
Recorded pKi for compounds tested on the protein given by its sequence, drawn from a number of studies.
Note on units: pKi is unitless, being -log10 of a concentration expressed in mol/L.

-- ask Param item = Fc1ccccc1Oc1cccc(F)c1C1CCNCC1 ; retrieve measured pKi.
-- reply 8.34

-- ask Also need O=C(CCN1CCN(c2ccc(F)cc2)CC1)c1ccccc1 , thanks.
-- reply 6.10

-- ask Entry O[C@@H](CNCC[C@H](Oc1ccc(C(F)(F)F)cc1)c1ccccc1)COc1cccc2ccccc12 please
-- reply 7.48

-- ask Lookup c1cc(N2CCN([C@H]3CC[C@@H](c4c[nH]c5ccccc54)CC3)CC2)c2nc[nH]c2c1
-- reply 8.10

-- ask Another compound to look at: O=C(CCN1CCN(c2cccc3ccccc23)CC1)c1csc2ccccc12
-- reply 7.00

-- ask Ok, now Fc1ccc(Sc2ccccc2N2CCNCC2)cc1
-- reply 7.41

-- ask # repeat for Fc1ccc2[nH]cc([C@H]3CC[C@H](NCC4COc5ccccc5O4)CC3)c2c1 (stereo not given in full)
-- reply 6.71

-- ask Ok, now Fc1ccc2c(CCNCc3cccc(OCC(F)(F)C(F)F)c3)c[nH]c2c1
-- reply 5.40

-- ask Note, next up: COc1cccc(N2CCN(CCCCOc3c(C(C)=O)c(C)cc4oc(=O)cc(C)c34)CC2)c1
-- reply 7.82

* * *

Kindly find below pKi information for 5-hydroxytryptamine receptor 1A (Homo sapiens) taken from the literature.
# target_or_system: 5-hydroxytryptamine receptor 1A (Homo sapiens)
# Sequence (P08908 whole entry): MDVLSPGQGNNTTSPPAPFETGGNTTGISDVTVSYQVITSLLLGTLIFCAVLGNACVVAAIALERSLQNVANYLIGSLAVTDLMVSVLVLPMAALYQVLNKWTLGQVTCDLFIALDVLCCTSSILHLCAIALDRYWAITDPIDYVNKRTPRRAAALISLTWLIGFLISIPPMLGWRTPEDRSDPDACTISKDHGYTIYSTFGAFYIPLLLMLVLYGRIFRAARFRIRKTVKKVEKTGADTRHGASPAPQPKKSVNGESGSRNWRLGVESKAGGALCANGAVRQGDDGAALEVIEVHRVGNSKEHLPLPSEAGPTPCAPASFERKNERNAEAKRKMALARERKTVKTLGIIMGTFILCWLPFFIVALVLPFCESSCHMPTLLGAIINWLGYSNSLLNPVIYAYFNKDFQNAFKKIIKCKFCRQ
Units for pKi: none; it is -log10 of a concentration expressed in mol/L.

-- ask I am curious: what pKi value has been reported for CN1CCc2[nH]c3ccc(S(=O)(=O)Nc4cccc(F)c4)cc3c2C1 ?
-- reply 8.15

-- ask Try this compound too: CCCN(CCCc1c[nH]c2ccc(F)cc12)[C@H]1COc2c(F)ccc(C(N)=O)c2C1
-- reply 8.82

-- ask Check O=c1[nH]c(CCCCN2CCN(c3ccc(Cl)cc3)CC2)nc2ccccc12 too.
-- reply 7.12

-- ask Now this one: OC(CNCCCCCCNCCC(Oc1ccc(C(F)(F)F)cc1)c1ccccc1)COc1cccc2ccccc12 (centres undefined)
-- reply 6.41

-- ask Next record, please: Fc1ccc2c(C3CCN(CCCOc4ccc(CCN5CCCCC5)cc4)CC3)noc2c1
-- reply 8.13

-- ask Entry to check: O=S(=O)(c1cncc2ccccc12)N1CCC(CCN2CCN(c3ccc(Cl)c(Cl)c3)CC2)CC1
-- reply 6.49

-- ask Here is the next compound: NC(=O)[C@@H]1Cc2ccccc2CN1C(=O)CCCCCN1CCN(c2noc3ccccc23)CC1
-- reply 6.64

-- ask Then Cc1cccc(N2CCN(CCCCNC(=O)c3cc4ccccc4o3)CC2)n1 ?
-- reply 8.70

-- ask Moving on to Cl.O=S(=O)(c1ccc2ccccc2c1)c1n[nH]c2ccc(NC3CCNCC3)cc12
-- reply 5.36

-- ask Same for O=C1CCc2ccc(OCCCCN3CCN(c4ccccc4Cl)CC3)nc2N1
-- reply 8.34

-- ask Moving on to Cc1ccc2c(OCC(C)N3CCC(Cc4ccc5c(c4)NC(=O)CO5)CC3)cccc2n1 (single isomer, unassigned; enantiomer I)
-- reply 7.30

-- ask Entry to check: CCN(CCCc1c[nH]c2ccc(F)cc12)C1COc2ccc3c(c2C1)C(=O)NC3 (racemic)
-- reply 8.70

-- ask CC1(c2cccc3ccccc23)NC(=O)N(CC(O)CN2CCN(c3ccccc3C#N)CC2)C1=O (centres undefined) ?
-- reply 5.91

-- ask Follow-up item: Cc1ccc2c(OC(C)CN3CCC(Cc4ccc5c(c4)NC(=O)CO5)CC3)cccc2n1 (racemic)
-- reply 6.40

-- ask Moving on to the next compound: COc1ccccc1N1CCN(CCCCCC(=O)N2CCC[C@H]2C(N)=O)CC1
-- reply 7.36

-- ask What do you have for CCc1nc2c(N3CCNCC3)ccnc2n1Cc1cccc(Cl)c1 ?
-- reply 5.87

-- ask Try this compound too: COc1cccc(-c2ccc(CNCCc3c[nH]c4ccc(OC)cc34)o2)c1
-- reply 7.04

-- ask Let us now turn to Cn1c(=O)c2c(nc3n2CCC(=O)N3CCCN2CCN(c3cccc(Cl)c3)CC2)n(C)c1=O
-- reply 7.37

-- ask What would you report for CC(C)c1ccccc1N1CCN(CCCCCC(=O)N2Cc3ccccc3C2)CC1 ?
-- reply 7.66

* * *

Compiled notes: published Ki values involving 5-hydroxytryptamine receptor 1A (Homo sapiens).
Give a bare numeral; the unit nM is implied.

-- ask For O=C(NCCCCN1CCN(c2cccc(F)c2)CC1)c1cc2ccccc2cn1 , what is its reported Ki?
-- reply 11

-- ask Likewise for CC(=O)c1c(OCCCN2CCN(c3ccccc3C(F)(F)F)CC2)ccc2c(C)cc(=O)oc12 ?
-- reply 8.8

-- ask Next record, please: COc1ccccc1N1CCN(CCCCC(=O)N2CCC[C@H]2C(N)=O)CC1
-- reply 214

-- ask Thanks! And CNCc1ccc(Cl)c(-c2ccccc2OC)c1 ?
-- reply 1700

-- ask Another: COc1ccccc1N1CCN(CCCN2CCCn3c2nc2c3c(=O)n(C)c(=O)n2C)CC1
-- reply 2.8

* * *

pKi for the protein given by its sequence - collated from the literature.
Target sequence: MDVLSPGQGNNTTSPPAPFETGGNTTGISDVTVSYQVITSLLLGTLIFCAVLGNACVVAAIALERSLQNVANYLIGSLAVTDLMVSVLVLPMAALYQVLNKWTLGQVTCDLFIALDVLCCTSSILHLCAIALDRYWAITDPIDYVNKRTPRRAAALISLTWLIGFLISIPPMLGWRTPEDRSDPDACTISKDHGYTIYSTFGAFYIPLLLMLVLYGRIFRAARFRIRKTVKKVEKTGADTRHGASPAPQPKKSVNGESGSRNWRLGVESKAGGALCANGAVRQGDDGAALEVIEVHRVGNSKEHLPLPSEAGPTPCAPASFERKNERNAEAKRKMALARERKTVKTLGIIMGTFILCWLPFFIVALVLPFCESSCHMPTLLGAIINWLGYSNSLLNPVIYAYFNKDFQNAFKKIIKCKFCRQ
FYI, pKi means -log10 of a concentration in mol per litre.

-- ask Tell me reported pKi for COc1ccc2ccc(NCCCN3CCN(c4ccccc4OC)CC3)nc2c1 , tested with the protein given by its sequence.
-- reply 9.70

-- ask Subsequent entry: CCCN1CCc2cccc3c2C1Cc1cccc(OCCCCN2CCN(c4ccccc4OC)CC2)c1-3 (racemic)
-- reply 7.24

-- ask Same thing, different compound: COc1ccc(CNCCC(c2ccco2)c2ccccc2OC)cc1 (stereo not given)
-- reply 5.21

-- ask // query: CCC(Oc1cc(F)ccc1Cl)c1nc(N)nc(N2CCN(C)CC2)n1 (stereo not given)
-- reply 5.76

-- ask Follow-up item: Cc1cc(OCCCN2CCN(c3ccc([N+](=O)[O-])cc3)CC2)c2c(C)cc(=O)oc2c1
-- reply 5.92

* * *

Dear all, I have gathered published pKi values for 5-hydroxytryptamine receptor 1A (Homo sapiens, UniProt P08908); the list follows.
To interpret pKi, take it as minus log10 of a concentration measured in moles per litre.

-- ask # lookup: pKi of CC1(c2ccc(F)cc2)NC(=O)N(CC(O)CN2CCN(c3ccccc3)CC2)C1=O (stereo not given)
-- reply 5.56

-- ask Same read-out for O=S(=O)(c1cncc2ccccc12)N1CCC(CCN2CCN(c3cccc(F)c3)CC2)CC1 ?
-- reply 6.43

-- ask Consider next the compound O=C1c2cccc3cccc(c23)N1CCCCCCN1CCN(c2ccc(Br)cc2)CC1 in the same way.
-- reply 6.16

-- ask What do we get for Fc1cccc(Oc2ncccc2C2CCNCC2)c1F ?
-- reply 6.76

-- ask Try the compound O=C1CC2(CCCC2)CC(=O)N1CCN1CCN(c2ccc(F)cc2F)CC1
-- reply 7.62

-- ask Note, next up: c1ccc(OCCNC[C@H]2OCCO[C@H]2c2ccccc2)cc1 (relative stereo)
-- reply 6.67

-- ask Same thing, different compound: Cc1ccc2c(OCCN3CCC(Cc4cccc(N5CCCN(C)CC5)c4)CC3)cccc2n1
-- reply 8.60

-- ask What about Cn1c(=O)c2c(nc3n2CCCCN3CCCN2CCN(c3ccccc3)CC2)n(C)c1=O ?
-- reply 7.51

-- ask Same read-out for NC(=O)c1ccc(F)c2c1CC(N(CCCCc1c[nH]c3ccc(F)cc13)CC1CC1)CO2 (racemic) ?
-- reply 8.68

-- ask Would you mind doing C[C@@H](CN(C(=O)c1ccc(C(F)(F)F)cc1)c1ccccn1)N1CCN(c2cccc3c2OCCO3)CC1 as well?
-- reply 8.07

-- ask Same question for COc1ccccc1N1CCN(CCn2c(=O)[nH]c3[nH]c(-c4ccccc4Cl)cc3c2=O)CC1 please.
-- reply 7.72

-- ask // next record Cc1ccc2c3c(ccc2n1)OC[C@H](CN1CCN(c2ccc4cc(OC(F)(F)F)ccc4n2)CC1)O3
-- reply 6.76

-- ask Please give the result for O=C(CCCCCN1CCN(c2ccccc2-c2ccccc2)CC1)N1Cc2ccccc2C1 too.
-- reply 6.91

-- ask Now consider O=c1[nH]c2cccc(N3CCN(Cc4ccc5ccccc5n4)CC3)c2[nH]1 .
-- reply 6.61

-- ask Also need COc1ccccc1N1CCN(CCCCNC(=O)[C@H](CC(N)=O)NC(=O)C2CCCCC2)CC1 , thanks.
-- reply 7.62

-- ask Now consider Oc1nc2cccc(N3CCN(Cc4cncc(-c5ccccc5)c4)CC3)c2o1 and answer again.
-- reply 8.11

-- ask Please give the result for Nn1c(CCCCN2CCN(c3ccc4ccccc4n3)CC2)nc2c(c1=O)CCCC2 too.
-- reply 9.15

-- ask Could you do the same for O=C1CC2(CCCC2)CC(=O)N1CCN1CCN(c2ccc(Cl)cc2)CC1 , please?
-- reply 6.22
